GI50 values by entry
# System: OVCAR-3 ovarian
# experiment: NCI tumour cell line growth inhibition, 48 h

moleculeSmiles: CC(=O)Nc1c(I)c(C(=O)O)c(I)c(N(C)C(C)=O)c1I
GI50: > 100 µM

moleculeSmiles: O=C1c2cccc3cccc(c23)C(=O)N1CC#Cc1ccc2c3c(cccc13)C(=O)N(CCN1CCNCC1)C2=O
GI50: 3.6 µM

moleculeSmiles: Cc1ccc(-c2c3c(N)nc(-c4ccncc4)nc3nc3c2c(C)nn3-c2ccccc2)cc1
GI50: 7.65 µM

moleculeSmiles: O=C1NC(=O)C(N2CCc3ccccc32)=C1c1ccc(Cl)cc1
GI50: > 25 µM

moleculeSmiles: O=S1CCN(Cc2ccc(-c3ccc4ncnc(Nc5ccc(OCc6ccccc6)c(F)c5)c4c3)o2)CC1
GI50: 7.93 µM

moleculeSmiles: O=C1/C(=C\c2ccc([N+](=O)[O-])cc2)CS(=O)(=O)C/C1=C/c1ccc([N+](=O)[O-])cc1
GI50: 0.0761 µM

moleculeSmiles: O=Cc1c[nH]c2ccc(-c3csc4ccccc34)cc12
GI50: 2.01 µM

moleculeSmiles: O=c1c(-c2ccc3c(c2)OCO3)coc2c(CO)c(O)ccc12
GI50: 2.07 µM

moleculeSmiles: C/C(=C\CCc1ccsc1)CC/C=C(\C)CCCN1CCN(CCO)CC1
GI50: 3.16 µM

moleculeSmiles: O=C(N/N=C/c1ccncc1)c1ccc(C(F)(F)F)nc1Nc1cccc(C(F)(F)F)c1
GI50: 2.65 µM
